B1: NELF-E aptamer (parent)
chain: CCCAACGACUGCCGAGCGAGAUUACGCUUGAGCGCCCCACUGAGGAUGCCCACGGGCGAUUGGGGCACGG

Variants of: B1
Assay: HiTS-RAP
Conditions: with NELF-E (Drosophila)
pKd: −log10 of the molar value.
1 (yes) means recorded pKd is 8 or above; 0 (no) means it is below 8.

Problem: Dear colleague, could you confirm whether C17G C25U has pKd at or above 8?
Result: 1 (yes)

Problem: Hi, just wondering whether A59G shows pKd of 8 or higher.
Result: 0 (no)

Problem: Please indicate if the recorded pKd for A4G C13G meets or exceeds 8.
Result: 1 (yes)

Problem: Determine whether measured pKd meets or exceeds 8 for G16U A19U
Result: 1 (yes)

Problem: In plain terms: is recorded pKd at least 8 for U10G C53U ?
Result: 1 (yes)

Problem: Please indicate if the recorded pKd for C6U C12G meets or exceeds 8.
Result: 1 (yes)

Problem: Determine whether measured pKd meets or exceeds 8 for C12U G34A
Result: 1 (yes)

Problem: Given the entry C6U U41A , answer whether its pKd meets or surpasses 8.
Result: 0 (no)

Problem: Is the recorded value of pKd equal to or greater than 8 for this variant? U10G C53A
Result: 1 (yes)

Problem: Decide: is the reported value of pKd for A24G G32A equal to or greater than 8?
Result: 1 (yes)

Problem: Has U23G A46G a recorded pKd greater than or equal to 8?
Result: 0 (no)

Problem: Answer whether pKd of A5G U22C is greater than or equal to 8.
Result: 1 (yes)

Problem: Reported pKd at or above 8? U23G C40G
Result: 1 (yes)

Problem: Check if pKd >= 8 (inclusive). Item: U23G A46U
Result: 0 (no)

Problem: # bool: pKd of U10G C13U >= 8
Result: 1 (yes)

Problem: Entry C12U A24G : is its pKd no less than 8?
Result: 1 (yes)

Problem: Reported pKd reaches at least 8 for A52G ?
Result: 1 (yes)

Problem: Hi, just wondering whether U10A A31U shows pKd of 8 or higher.
Result: 1 (yes)

Problem: For this variant, is measured pKd 8 or higher? A4G A5G
Result: 1 (yes)

Problem: Please indicate if the recorded pKd for G42C meets or exceeds 8.
Result: 0 (no)

Problem: Threshold query (pKd >= 8) on A4G A15G
Result: 1 (yes)

Problem: Threshold query (pKd >= 8) on A8G C53U
Result: 1 (yes)

Problem: Is the recorded value of pKd equal to or greater than 8 for this variant? C12G A46G
Result: 0 (no)

Problem: // inclusive: pKd at least 8? input: C6G A15G
Result: 1 (yes)

Problem: Answer whether pKd of A52C is greater than or equal to 8.
Result: 1 (yes)

Problem: Hi, just wondering whether U10G U23G shows pKd of 8 or higher.
Result: 1 (yes)

Problem: Check the entry U28A U29A : does pKd equal or exceed 8?
Result: 1 (yes)

Problem: Textbook exercise: given the entry C12G U29A , state whether its pKd is greater than or equal to 8.
Result: 1 (yes)

Problem: Is pKd for G7U A52G at or above 8?
Result: 1 (yes)

Problem: Would you say C12G A59G shows pKd at minimum 8?
Result: 0 (no)

Problem: Check this variant for pKd at or above 8: C12U
Result: 1 (yes)

Problem: Entry A31C : is its pKd no less than 8?
Result: 1 (yes)

Problem: Item G20C with pKd of 8 or above?
Result: 1 (yes)

Problem: Quick check: does A46U A59G have pKd greater than or equal to 8?
Result: 0 (no)

Problem: Is it the case that A5G U23A has pKd reaching or exceeding 8?
Result: 1 (yes)

Problem: Exam item: decide whether the reported pKd for A4U C17U is at least 8.
Result: 1 (yes)

Problem: Could you tell me if the measured pKd of A5U A39U reaches 8 or more?
Result: 0 (no)

Problem: Evaluate C6G G56U : pKd at minimum 8?
Result: 1 (yes)

Problem: # check: pKd of U29G G56A is greater than or equal to 8
Result: 1 (yes)

Problem: Is it the case that U61C has pKd reaching or exceeding 8?
Result: 0 (no)

Problem: For this variant, is measured pKd 8 or higher? C17G C57U
Result: 1 (yes)

Problem: Please indicate if the recorded pKd for A19G U22G meets or exceeds 8.
Result: 1 (yes)

Problem: Assess whether reported pKd for C9G U41A sits at 8 or higher.
Result: 0 (no)

Problem: Kindly determine if pKd recorded for C38G is above or exactly 8.
Result: 1 (yes)

Problem: Please tell me: is the variant G45A at or over 8 in terms of pKd?
Result: 0 (no)

Problem: Dear colleague, could you confirm whether C9G A19G has pKd at or above 8?
Result: 1 (yes)
